Reference source for all entries: PubChem BioAssay

Molecular target: Tumor necrosis factor receptor superfamily member 10B (Homo sapiens)
Experiment: TRAIL sensitizers in caspase-8 expressing neuroblastoma cells, dose response, NB7 cells plus caspase-8, luminescence, panel (AID 652002)
Conditions: NB7 neuroblastoma +caspase-8, TRAIL sensitization, luminescence viability, NB7+Caspase-8, with TRAIL, run 1; at 12.5 µM (top of the series)
QUANTITY NAME: activity, % sensitization

compound=O=C1c2ccc3c4c(ccc(c24)C(=O)N1c1cccc(O)c1)C(=O)N(c1cccc(O)c1)C3=O test_system="Tumor necrosis factor receptor superfamily member 10B (Homo sapiens)" measured_value=52.1%
compound=CN(C(=O)COC(=O)c1cnc(Cl)c(Cl)c1)C1CCCCC1 test_system="Tumor necrosis factor receptor superfamily member 10B (Homo sapiens)" measured_value=11.9%
compound=Cc1ccnc(NC(=O)Nc2ccc3c(c2)OCO3)c1 test_system="Tumor necrosis factor receptor superfamily member 10B (Homo sapiens)" measured_value=40.8%
compound=Cc1cc(-c2ccccc2)nc(Nc2nc3c(C)cccc3c(=O)[nH]2)n1 test_system="Tumor necrosis factor receptor superfamily member 10B (Homo sapiens)" measured_value=41.7%
compound=Cc1cc2nc3ccc(N(C)C)cc3nc2cc1N test_system="Tumor necrosis factor receptor superfamily member 10B (Homo sapiens)" measured_value=38.9%
compound=CC(C)C[C@H](NC(=O)c1nc[nH]c1C(=O)N[C@@H](CCCCNC(=O)OC(C)(C)C)C(=O)OC(C)(C)C)C(=O)OCc1ccccc1 test_system="Tumor necrosis factor receptor superfamily member 10B (Homo sapiens)" measured_value=-36.8%
compound=Cc1c(P(=S)(c2ccccc2)c2ccccc2)[n+]2ccccc2n1CCc1ccccc1 test_system="Tumor necrosis factor receptor superfamily member 10B (Homo sapiens)" measured_value=3.09%
compound=CCOc1ccc(/C=C/C(=O)Nc2cccc(C(C)=O)c2)cc1 test_system="Tumor necrosis factor receptor superfamily member 10B (Homo sapiens)" measured_value=14.7%
compound=Fc1ccc(-c2cnn3c(-c4ccncc4)ccnc23)cc1 test_system="Tumor necrosis factor receptor superfamily member 10B (Homo sapiens)" measured_value=-13.8%
compound=O=C(NC(=S)Nc1nc2c(s1)CCCC2)c1ccccc1 test_system="Tumor necrosis factor receptor superfamily member 10B (Homo sapiens)" measured_value=-8.98%
compound=O=C(NC1=NCCS1)c1cc2ccccc2o1 test_system="Tumor necrosis factor receptor superfamily member 10B (Homo sapiens)" measured_value=45.6%
compound=Cc1ccc(S(=O)(=O)Nc2ccccc2C(=O)Nc2nc(-c3ccc(F)cc3)cs2)cc1 test_system="Tumor necrosis factor receptor superfamily member 10B (Homo sapiens)" measured_value=32%
compound=COc1cc(NC(=O)c2cncc(-c3ccc(C#N)cc3)c2)cc(C(=O)Nc2cccc(C(F)(F)F)c2)c1 test_system="Tumor necrosis factor receptor superfamily member 10B (Homo sapiens)" measured_value=-1.86%
compound=Cc1ccc2c(c1)-c1nc3ccccc3cc1C2=NC1CCCCC1 test_system="Tumor necrosis factor receptor superfamily member 10B (Homo sapiens)" measured_value=26.1%
compound=O=C(Nc1cnc2ccccn2c1=O)c1ccc(Cl)cc1Cl test_system="Tumor necrosis factor receptor superfamily member 10B (Homo sapiens)" measured_value=15.5%
compound=COCCCn1c(C(=O)Nc2ccc3c(c2)OCO3)cc2c(=O)n3cccc(C)c3nc21 test_system="Tumor necrosis factor receptor superfamily member 10B (Homo sapiens)" measured_value=-7.02%
compound=Cc1cccc(CC(=O)Nc2cc(C)c3c(=O)oc4ccccc4c3n2)c1 test_system="Tumor necrosis factor receptor superfamily member 10B (Homo sapiens)" measured_value=-12.3%
compound=COc1cccc(NC(=O)c2ccc3c(c2)OCO3)c1 test_system="Tumor necrosis factor receptor superfamily member 10B (Homo sapiens)" measured_value=51%
compound=COC(=O)c1ccc(/C=C/c2nc3ccccc3c(=O)[nH]2)cc1 test_system="Tumor necrosis factor receptor superfamily member 10B (Homo sapiens)" measured_value=-15.3%
compound=COc1cccc(N/C=C/C(=O)c2ccc(Cl)cc2)c1 test_system="Tumor necrosis factor receptor superfamily member 10B (Homo sapiens)" measured_value=32%
compound=C/C(=N\NC(=O)c1csc(C)c1C)c1ccco1 test_system="Tumor necrosis factor receptor superfamily member 10B (Homo sapiens)" measured_value=34.8%
compound=COc1ccc(-c2cc(C(=O)N/N=C/c3cccnc3)c3ccccc3n2)cc1 test_system="Tumor necrosis factor receptor superfamily member 10B (Homo sapiens)" measured_value=22.7%
compound=COc1ccc(OCC(=O)N/N=C/C=C/c2ccccc2)cc1 test_system="Tumor necrosis factor receptor superfamily member 10B (Homo sapiens)" measured_value=44.7%
compound="NNC(=O)C1CCCn2c1nc1sc3c(c1c2=O)CCCC3 (stereo unspecified)" test_system="Tumor necrosis factor receptor superfamily member 10B (Homo sapiens)" measured_value=5.3%
compound=CCOc1ccc(NC(=O)Nc2cccs2)cc1 test_system="Tumor necrosis factor receptor superfamily member 10B (Homo sapiens)" measured_value=36.3%
compound=CC(C)Cc1nc2oc3c(Cl)ncnc3c2c2c1CCCC2 test_system="Tumor necrosis factor receptor superfamily member 10B (Homo sapiens)" measured_value=-5.07%
compound=COc1ccc(/C(C)=N/Nc2nncc3ccccc23)cc1 test_system="Tumor necrosis factor receptor superfamily member 10B (Homo sapiens)" measured_value=19.4%
compound=C(=C\c1ccco1)/c1nc2ccccc2[nH]1 test_system="Tumor necrosis factor receptor superfamily member 10B (Homo sapiens)" measured_value=-0.105%
compound=O=c1[nH]c(N/N=C\c2ccc3c(c2)OCO3)nc2ccccc12 test_system="Tumor necrosis factor receptor superfamily member 10B (Homo sapiens)" measured_value=33.9%
compound=Cc1nc2cc(NC(=O)Nc3cccc([N+](=O)[O-])c3)ccc2n1C test_system="Tumor necrosis factor receptor superfamily member 10B (Homo sapiens)" measured_value=44.4%
compound=CC(C)CCn1cnc2c([nH]c3cccc(Cl)c32)c1=O test_system="Tumor necrosis factor receptor superfamily member 10B (Homo sapiens)" measured_value=-14.6%
compound=O=C(Nc1ccc2ccccc2c1)c1ccc(Cl)cc1 test_system="Tumor necrosis factor receptor superfamily member 10B (Homo sapiens)" measured_value=33.9%
compound=O=C(Nc1ccc2c(c1)OCCO2)NC1CCCCC1 test_system="Tumor necrosis factor receptor superfamily member 10B (Homo sapiens)" measured_value=31.2%
compound=CCN(CC)c1ccc(/C=N/NC(=O)c2ccco2)cc1 test_system="Tumor necrosis factor receptor superfamily member 10B (Homo sapiens)" measured_value=25%
compound=Cc1ccc2oc(-c3cccc(N)c3)nc2c1 test_system="Tumor necrosis factor receptor superfamily member 10B (Homo sapiens)" measured_value=45.8%
compound="C#Cc1ccc(NC(=O)C2(C)CCN2C(=O)Cc2ccc(C(C)C)cc2)cc1 (stereo unspecified)" test_system="Tumor necrosis factor receptor superfamily member 10B (Homo sapiens)" measured_value=18.4%
compound=COc1ccc(-c2nnc(SCC(=O)c3[nH]c(C)c(C(C)=O)c3C)o2)cc1 test_system="Tumor necrosis factor receptor superfamily member 10B (Homo sapiens)" measured_value=-37%
compound=C/C(=N\NC(=O)c1n[nH]c2c1CCC2)c1ccco1 test_system="Tumor necrosis factor receptor superfamily member 10B (Homo sapiens)" measured_value=28.7%
compound=CCOc1ccc(-c2cc(C(=O)N3CCC(C)CC3)c3ccccc3n2)cc1 test_system="Tumor necrosis factor receptor superfamily member 10B (Homo sapiens)" measured_value=23.7%
compound=O=C(ONC1=NCCCCC1)c1ccc(Cl)cc1 test_system="Tumor necrosis factor receptor superfamily member 10B (Homo sapiens)" measured_value=16.1%
compound=Cc1ccc2c(c1)C(=NC1CCCCC1)c1cc3ccccc3nc1-2 test_system="Tumor necrosis factor receptor superfamily member 10B (Homo sapiens)" measured_value=-15%
compound=O=C(N/N=C/c1ccc2cccnc2c1)c1ccco1 test_system="Tumor necrosis factor receptor superfamily member 10B (Homo sapiens)" measured_value=37.5%
compound=Cn1c(=O)c2c(SCC(=O)Nc3ccccc3F)nc(C3CC3)nc2n(C)c1=O test_system="Tumor necrosis factor receptor superfamily member 10B (Homo sapiens)" measured_value=-6.81%
compound=O=C1CCCc2nc(N3CCc4ccccc43)ncc21 test_system="Tumor necrosis factor receptor superfamily member 10B (Homo sapiens)" measured_value=22.4%
compound=O=Nc1ccc(NO)c2ccccc12 test_system="Tumor necrosis factor receptor superfamily member 10B (Homo sapiens)" measured_value=19%
compound=CN(C)CCCN(C(=O)c1ccc(S(=O)(=O)N2CCCc3ccccc32)cc1)c1nc2ccc(F)cc2s1 test_system="Tumor necrosis factor receptor superfamily member 10B (Homo sapiens)" measured_value=-21.5%

---

Biological target: Tumor necrosis factor receptor superfamily member 10B (Homo sapiens) (UniProt O14763)
Sequence (O14763 whole entry, looked up): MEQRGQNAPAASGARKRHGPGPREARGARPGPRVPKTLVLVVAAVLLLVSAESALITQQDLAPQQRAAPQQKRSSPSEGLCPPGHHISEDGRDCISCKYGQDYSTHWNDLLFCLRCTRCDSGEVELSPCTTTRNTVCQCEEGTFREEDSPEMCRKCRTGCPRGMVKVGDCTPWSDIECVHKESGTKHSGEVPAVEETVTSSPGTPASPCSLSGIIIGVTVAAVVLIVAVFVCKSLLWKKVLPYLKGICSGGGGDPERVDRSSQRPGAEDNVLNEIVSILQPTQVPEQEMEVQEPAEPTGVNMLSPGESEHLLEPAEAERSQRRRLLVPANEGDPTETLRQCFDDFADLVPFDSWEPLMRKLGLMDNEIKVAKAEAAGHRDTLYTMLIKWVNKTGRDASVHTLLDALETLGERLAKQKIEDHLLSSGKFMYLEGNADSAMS
Assay: caspase-8 TRAIL sensitization, hit retest, confirmation, cell-based, NB7+caspase-8, with/without TRAIL, luminescence panel (AID 651596)
Settings: NB7 neuroblastoma + caspase-8, TRAIL sensitization, luminescence viability, with TRAIL, mean of runs, at 10 µM, stronger effect = higher value
Please assign FALSE whenever activity is at or above 60%, and TRUE whenever it is below.

compound=CC(C)(C)OC(=O)NCCCCCNC(=O)c1[nH]cnc1C(=O)Nc1cc(Br)ccc1F answer_label=FALSE
compound=O=C(N/N=C/c1ccc2cccnc2c1)c1ccco1 answer_label=TRUE
compound=O=C(CSc1nnc(NC(=O)c2ccc(F)cc2)s1)NCc1ccco1 answer_label=FALSE
compound=COc1cc(C(=O)Nc2nc3ccccc3[nH]2)ccc1OC(F)F answer_label=FALSE
compound=Nc1ccc(-c2cnc(-c3ccc(N)cc3)nc2)cc1 answer_label=FALSE
compound=Cn1c(-c2ccccc2F)cc2onc(-c3ccccc3)c2c1=O answer_label=FALSE
compound=COc1cc(SC)ccc1C(=O)Nc1nc2ccccc2[nH]1 answer_label=FALSE
compound="CC1=C(C(=O)N(C)C)CC(CC(=O)NCCN2CCOCC2)C(=O)N1CCCN1CCCC1=O (stereo not drawn)" answer_label=TRUE
compound=Cc1ccnc(NC(=S)NC(=O)c2ccco2)c1 answer_label=FALSE
compound=CCOc1cc(/C=N\NC(=O)c2ccc(NC(=O)C(C)(C)C)cc2)ccc1OC(=O)c1cccc(C)c1 answer_label=FALSE
compound=Cn1c(-c2ccc(Br)o2)nc2ccccc21 answer_label=TRUE
compound=Cc1ccc(-c2nc(-c3ccncc3)no2)c(Cl)c1 answer_label=FALSE
compound=O=C(CSc1ncnc2nc[nH]c12)c1ccc(Cl)cc1 answer_label=TRUE
compound=Cc1ccc(-n2nnc(-c3nccn3C)n2)cc1 answer_label=FALSE
compound=COC(=O)c1c(NC(=O)COc2ccc(Cl)cc2Cl)sc2c1CC(C)(C)NC2(C)C answer_label=FALSE
compound=OC(c1ccccc1)(c1ccccc1)C1CCN(CCCOc2ccc3c(c2)CCCC3)CC1 answer_label=TRUE
compound=N/C(Cc1ccc(Cl)cc1)=N\OC(=O)c1ccc2ccccc2c1 answer_label=FALSE
compound=O=C(CCl)N1CCN(S(=O)(=O)c2ccc3ccccc3c2)CC1 answer_label=FALSE
